test system: H1299 NSCLC cells; test: CCK-8 cell proliferation / cytotoxicity, H1299; format: cell-based; conditions: Homo sapiens, NCI-H1299, H1299 (EGFR+++), 72 h
pIC50: −log10 of the molar value.
measured parameter: pIC50

# input Value wanted: pIC50 (H1299 NSCLC cells) of entry CC(C)[C@]12O[C@H]1[C@@H]1O[C@]13[C@]1(O[C@H]1C[C@H]1C4=C(CC[C@@]13C)C(=O)OC4)[C@@H]2O [TRP, Triptolide]
# output 7.90 to 8.20

Entry source: patent US20210023238A1
